target: Neuropeptides B/W receptor type 1 (Homo sapiens); experiment: GPR7 antagonist potency, late-stage follow-up, cell-based, fluorescence, dose response, set 2 (AID 504868); conditions: GPR7-expressing cells, fluorescence antagonist readout; run 2
The source made the active and inactive calls. How the calls were made is not given here.
Pick one: active, inactive

Look over these answered cases.
Cc1ccc(-n2ncc(Cl)c(Oc3ccc(CO)cc3)c2=O)cc1; active
COc1ccc(Oc2c(-c3ccccc3)cnn(-c3ccc(C)cc3)c2=O)cc1; inactive
COc1ccc(Oc2c(C)cnn(-c3ccc(C(C)C)cc3)c2=O)cc1; active
COc1ccc(Oc2c(C3CC3)cnn(-c3ccc(C)cc3)c2=O)cc1; active
Cc1ccc(-n2ncc(Cl)c(Oc3ccc(C(F)(F)F)cc3)c2=O)cc1; active

# next compound below
Called result for "COc1ccc(Oc2c(C=O)cnn(-c3ccc(C(C)C)cc3)c2=O)cc1" active
